Collected GI50 values appear next to each entry.
Test system: SNB-19
PROCEDURE_DETAILS: NCI tumour cell line growth inhibition, 48 h
Active and inactive are the calls of the source. Rule as the data show it: active = GI50 up to about 1.1 µM and inactive = higher.

O=[N+]([O-])c1ccc2c(c1)N=C1OC(c3c[nH]c4ccc(COc5ccccc5)cc34)C(O)=C1N2 (centres undefined) ... > 100 µM (inactive)
O=C(/C=C/c1ccc(Cl)c(Cl)c1)C1CCC(Cl)CC1 (centres undefined) ... 17.7 µM (inactive)
CCOC(=O)C12CC(C)=C(C)CC1CCCc1ccccc12 (centres undefined) ... 29.6 µM (inactive)
COCc1cc2c(s1)C(=O)C1=C(C2=O)C2(C=C(Br)C(=O)C(Br)=C2)CCN1 ... 18.3 µM (inactive)
COC(=O)C1Cc2c(n(C)c3ccccc23)C(c2ccccc2)N1 (centres undefined) ... > 100 µM (inactive)
Cc1ccc(S(=O)(=O)c2ccsc2NC(=O)C(F)(F)F)cc1 ... 65 µM (inactive)
CCC1OC(=O)C(C)C(OC2CC(C)(O)C(O)C(C)O2)C(C)C(O)C(C)(O)CC(C)C(=O)C(C)C(O)C1C (centres undefined) ... > 300 µM (inactive)
O=CN(CCN1CCCC1)C1CCc2cc(Cl)c(Cl)cc2C1 (centres undefined) ... 0.851 µM (active)
Cc1ncc(COP(=O)(O)O)c(C)c1O ... > 100 µM (inactive)
Cc1csc2c1-n1cccc1C2=O ... > 100 µM (inactive)

API: the following record is the query input.
## Task Give GI50 for CC1OC(OC2C(O)COC(OC3C(C)OC(OC4C(OC(=O)[C@]56CCC(C)(C)C[C@@H]5C5=CCC7[C@@]8(C)C[C@H](O)[C@H](OC9OC(CO)C(O)C(O)C9O)[C@@](C)(CO)[C@@H]8CC[C@@]7(C)[C@]5(C)CC6)OCC(O)C4O)C(O)C3O)C2O)C(O)C(O)C1O (some centres undefined)
## Result 21.8 µM (inactive)

###

Tested on: DMS-273
PROCEDURE_DETAILS: NCI tumour cell line growth inhibition, 48 h
Active and inactive are the calls of the source. No stated cut-off is given here; in the data, active = GI50 up to about 1.1 µM and inactive = higher.
MEASURED_PROPERTY: GI50

Known results for compounds:
COCc1cc2c(s1)C(=O)C1=C(C2=O)C2(C=C(Br)C(=O)C(Br)=C2)CCN1 ... 2.85 µM (inactive)
CCN(CC)[C@@H]1c2cc3c(cc2C(c2cc(OC)c(O)c(OC)c2)C2C(=O)CO[C@@H]21)OCO3 (stereo partly drawn) ... > 100 µM (inactive)

API: the following record is the query input.
## Task Give GI50 for Clc1cc(Cl)c2n[se]nc2c1
## Result > 100 µM (inactive)

###

Collected GI50 values appear next to each entry.
System: SNB-75
PROCEDURE_DETAILS: NCI tumour cell line growth inhibition, 48 h
The source made the active and inactive calls. No stated cut-off is given here; in the data, active = GI50 up to about 1.1 µM and inactive = higher.

## Task Give GI50 for O=C(CC(NC(=O)C(F)(F)F)C(=O)O)OCc1ccccc1 (centres undefined)
## Result > 100 µM (inactive)

## Task Give GI50 for NC(=O)Nc1cc(O)ccc1/N=N/c1ccc(S(=O)(=O)Nc2ccccn2)cc1
## Result > 100 µM (inactive)

## Task Give GI50 for CCOC(=O)C12CCC(c3c(C)cccc3C)(O1)C(C(=O)OC)=C2C(=O)OC (centres undefined)
## Result 3.64 µM (inactive)

###

Tested on: COLO 205
PROCEDURE_DETAILS: NCI tumour cell line growth inhibition, 48 h
Active and inactive are the calls of the source. No stated cut-off is given here; in the data, active = GI50 up to about 1.1 µM and inactive = higher.
MEASURED_PROPERTY: GI50

Known results for molecules:
COC(=O)C1Cc2c(n(C)c3ccccc23)C(c2ccccc2)N1 (stereo unspecified) ... 23 µM (inactive)
CC[C@H](CC[C@@H](C)[C@H]1CC[C@H]2[C@@H]3CC=C4C[C@@H](O)CC[C@]4(C)[C@H]3CC[C@]12C)C(C)C [BETA-SITOSTEROL] ... > 100 µM (inactive)

## Task Under COLO 205, report GI50 for Cc1cc2ccc(N)nc2nc1O
## Result > 100 µM (inactive)

## Task Under COLO 205, report GI50 for CCCCCCCCOCC(COC(=O)CCCCCCC)OC(=O)CCCCCCC (stereo unspecified)
## Result > 100 µM (inactive)

## Task Under COLO 205, report GI50 for Cc1nc(-c2cccnc2)sc1C(=O)/C=C/c1ccc(Cl)cc1Cl
## Result > 100 µM (inactive)

## Task Under COLO 205, report GI50 for Cc1ccc(S(=O)(=O)N2CCC(=O)c3cc(Br)ccc32)cc1
## Result 16.9 µM (inactive)

###

System: OVCAR-4
PROCEDURE_DETAILS: NCI tumour cell line growth inhibition, 48 h
Activity calls are given as the source filed them. No stated cut-off is given here; in the data, active = GI50 up to about 1.1 µM and inactive = higher.
Returns: one label drawn from yes = active, no = inactive

Here's what some known entries look like.
CCOC(=O)C12CC(C)=C(C)CC1CCCc1ccccc12 (stereo not drawn) ... no
C/C(=N\NC(=S)NNC(=S)N(C)c1ccccc1)c1ccccn1 ... no
N#CCc1nc(-c2cc3ccc(O)cc3oc2=O)cs1 ... no
O=C1c2c(O)cccc2C(C(=O)CCCCCC(=O)C2c3cccc(O)c3C(=O)c3c(O)cccc32)c2cccc(O)c21 ... no

## Task Query: recorded result category for CN(C)c1nncc2[nH]nnc12 in this test
## Result no

## Task Query: recorded result category for C=C1C(=O)OC2CC(C)C3C4OC4C(O)C3(C)C(O)C12 (stereo not drawn) in this test
## Result no

## Task Query: recorded result category for CC1c2[nH]c3ccccc3c2CCN1O (stereo not drawn) in this test
## Result no

## Task Query: recorded result category for C[C@@](O)(/C=C/[C@H]1CC=CC(=O)O1)[C@@H](C[C@@H](O)\C=C/C=C\C=C\CO)OP(=O)(O)O [FOSTRIECIN SODIUM] in this test
## Result no

## Task Query: recorded result category for COc1ccc(/C=C2\Oc3cc(OC(C)=O)ccc3C2=O)cc1 in this test
## Result no

## Task Query: recorded result category for O=C1c2cccc3cc4ccccc4c(c23)C(=O)N1CCNCCN1C(=O)c2cccc3cc4ccccc4c(c23)C1=O in this test
## Result yes

## Task Query: recorded result category for CC(=C/C=C/C=C(C)\C=C\C=C(\C)C(=O)O)/C=C/C=C(/C)C(=O)O in this test
## Result no

## Task Query: recorded result category for O=C(/C=C/c1ccc(Cl)c(Cl)c1)C1CCC(Cl)CC1 (stereo not drawn) in this test
## Result no

###

System: HCC 2998
PROCEDURE_DETAILS: NCI tumour cell line growth inhibition, 48 h
Active and inactive are the calls of the source. No stated cut-off is given here; in the data, active = GI50 up to about 1.1 µM and inactive = higher.
MEASURED_PROPERTY: GI50

Known results for molecules:
Cc1c2c(c(C)n1-c1ccccc1)C(=O)N(CCCCN1CCN(c3ccccc3)CC1)C2=O ... 4.99 µM (inactive)
C[Si](C)(C)CCOCN(C(=O)C1=CCC2(CC1)OCCO2)c1ccccc1I ... 21.1 µM (inactive)
CC(C)(C)[Si](C)(C)OCC1OC(n2cnc3c(=O)[nH]cnc32)CC1O (centres undefined) ... > 100 µM (inactive)
CN(C)c1n/c(=N/c2ccc3c(c2)OCO3)ss1 ... 44.4 µM (inactive)
NCCNC(=O)CN(CC(=O)O)C1CCCCC1N(CC(=O)O)CC(=O)O (centres undefined) ... > 100 µM (inactive)

## Task Give GI50 for CCN(CC)C(=S)Nc1ccc(-c2cc3ccc(O)cc3oc2=O)cc1
## Result 20.2 µM (inactive)

## Task Give GI50 for O=[N+]([O-])c1ccc2c(c1)N=C1OC(c3c[nH]c4ccc(COc5ccccc5)cc34)C(O)=C1N2 (centres undefined)
## Result 21.2 µM (inactive)

## Task Give GI50 for CCOC(=O)CNC(=O)N(CC)C12CC3CC(CC(C3)C1)C2
## Result 158 µM (inactive)

## Task Give GI50 for O=C(c1ccc(Cl)cc1)N(C(=S)OC12CC3CC(CC(C3)C1)C2)c1ccccc1
## Result 31.6 µM (inactive)

###

Tested on: SF-539
PROCEDURE_DETAILS: NCI tumour cell line growth inhibition, 48 h
Activity calls are given as the source filed them. No stated cut-off is given here; in the data, active = GI50 up to about 1.1 µM and inactive = higher.
Returns: one label drawn from y for active, n for inactive

## Task Query: recorded result category for O=[N+]([O-])c1ccc(Sc2c3ccccc3nc3ccccc23)cc1 in this test
## Result n

## Task Query: recorded result category for CCOc1ccc(/N=C\c2ccc3cc(C)ccc3n2)cc1 in this test
## Result n

## Task Query: recorded result category for COc1ccc(C(=O)O)c2c(=O)c3ccccc3[nH]c12 in this test
## Result n

## Task Query: recorded result category for O=C(c1ccc(Cl)cc1)N(C(=S)OC12CC3CC(CC(C3)C1)C2)c1ccccc1 in this test
## Result n

## Task Query: recorded result category for CCN(CC)CCNc1ccc2ncn3c4ccc(O)cc4c(=O)c1c23 in this test
## Result y

## Task Query: recorded result category for N#CCc1nc2cc(C(F)(F)F)ccc2s1 in this test
## Result n

## Task Query: recorded result category for C/C(=C\c1ccccc1)C(=O)NCc1ccc(C(=O)NCCC(C)C)cc1 in this test
## Result n

## Task Query: recorded result category for O=CN(CCN1CCCC1)C1CCc2cc(Cl)c(Cl)cc2C1 (configuration not stated) in this test
## Result n

## Task Query: recorded result category for O=C(O)CN1CCCC(Cc2c[nH]c3ccccc23)C1 (configuration not stated) in this test
## Result n
